# credit: patent US20220306762A1

- assay_system: His-tagged mouse CD38 (ACRO Biosystems CD8-M5223) (mouse) (UniProt P56528)
- test_summary: ELISA, 1 ug/ml scFv-Fc, coated His-tagged CD38
property: ELISA signal
Numbers only.

binder	ELISA signal
40769p2.1.G4 scFv-Fc (scFv, part only; not given: Linker, domain order, Fc, V domains shown, not shown: another chain or arm of the molecule; a dimerising Fc or GST; small tags and cut ends) VH: EVQLLESGGGLVQPGGSLRLSCAASGFTFTSHDMNWVRQAPGKGLEWVSTITTGGNTYYADSVKGRFTISRDNSKNTLYLQMTSLRAEDTAVYYCTKHYSMDVWGQGTTVTVSS VL: QSVLTQPPSASGTPGQRVTISCSGSTSNVVFNAVYWYQQLPGTAPKLLFYGKSQRPSGVPDRFSGSKSGTSASLAISGLQSEDEADYYCAAWDDTLNGWVFGGGTKLTVL	2.1

Dear colleague, could you please provide ELISA signal for the binders listed below?
1. 40769p2.1.H12 scFv-Fc (scFv, part only; not given: Linker, domain order, Fc, V domains shown, not shown: another chain or arm of the molecule; a dimerising Fc or GST; small tags and cut ends) VH: EVQLLESGGGLIQPGGSLRLSCTASGFDFSSYGMHWVRQAPGKGLEWVGIISDSGGTTYYADSVKGRFTISRDNSKNTLYLQMNSLRAEDTALYYCASYIMDVWGQGITVTVSS VL: QSVLTQPPSASGTPGQRVTISCSGSNSNVGVNSVYWYQQLPGTAPKLLIYGSGRRPSGVPDRFSVSKSGTSASLAISGLQSEDEADYYCAAWDDGLNAWVFGGGTKLTVL
2. 40769p2.1.E8 scFv-Fc (scFv, part only; not given: Linker, domain order, Fc, V domains shown, not shown: another chain or arm of the molecule; a dimerising Fc or GST; small tags and cut ends) VH: EVQLLESGGGLVQPGGSLRLSCTGFGFTFTDARMSWVRQAPGKGLEWVADISSYGDNTYYADSVKGRFTISRDNSANTLYVQMNSLRAEDTAVYYCAKRMEREVMTIKLDYHAMDVWGQGTTVTVSS VL: QSVLTQTPSVSGTPGQRVTISCSGVFNIRNYVSWYQQLPGTAPKLLIFKDDQRPSGVPDRFSGSRSGTSASLAISGLQSEDEADYYCAAWDIFLNVWVFGGGTKLTVL

stdout:
[1.37, 0.046]
